- targetDesc: hematopoietic prostaglandin D synthase (H-PGDS) (Homo sapiens, UniProt O60760)
- Construct: Full length human H-PGDS cDNA (Invitrogen Ultimate ORF IOH13026) was amplified by PCR; 6-His (N); TEV protease cleavage site (N); made in house; host or cells: E. coli BL21 (DE3*), vector pET22b+
- Sequence (O60760 whole entry): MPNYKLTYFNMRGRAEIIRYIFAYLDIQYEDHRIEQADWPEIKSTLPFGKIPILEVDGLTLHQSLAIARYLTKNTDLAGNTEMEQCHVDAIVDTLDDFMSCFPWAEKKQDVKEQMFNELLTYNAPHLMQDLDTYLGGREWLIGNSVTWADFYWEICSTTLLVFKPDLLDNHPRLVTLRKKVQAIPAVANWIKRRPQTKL
- assayText: H-PGDS RapidFire High Throughput Mass Spectrometry Assay
- Format: biochemical
- particulars: conversion of PGH2 to PGD2 by human H-PGDS, 10 nM enzyme; mean pIC50; read-out: Potency Range (mean pIC50) (converted)
observationType: IC50

{"compound": "CN(c1nc2ncc(C(=O)N[C@H]3CC[C@H](C(C)(C)O)CC3)cc2s1)C1CC1 [Example 35]", "IC50": "100 to 1000 nM"}
{"compound": "CC(C)(O)C12CC(NC(=O)c3cnc4nc(C5CC5)sc4c3)(C1)C2 [Example 13]", "IC50": "100 to 1000 nM"}
{"compound": "O=C(N[C@H]1CC[C@H](OCCO)CC1)c1cnc2nc(C3CC3)sc2c1 [Example 18]", "IC50": "100 to 1000 nM"}

Report IC50 for every entry below.
1. CC(C)N(C)c1nc2ncc(C(=O)N[C@H]3CC[C@H](C(C)(C)O)CC3)cc2s1 [Example 6]
2. O=C(N[C@H]1CC[C@H](CO)CC1)c1cnc2nc(C3CC3)sc2c1 [Example 20]
3. C[C@]1(O)CC[C@H](NC(=O)c2cnc3nc(C4CC4)sc3c2)CC1 [Example 17]
4. CC(C)(O)[C@H]1CC[C@H](NC(=O)c2cnc3nc(N4CCC4)sc3c2)CC1 [Example 29]
5. CC(C)(O)[C@H]1CC[C@H](NC(=O)c2cnc3cc(Br)sc3c2)CC1 [Example 1]
6. O=C(N[C@H]1CC[C@H](C(O)C2CC2)CC1)c1cnc2nc(C3CC3)sc2c1 (relative stereo) [Example 26]
7. CC(N[C@H]1CC[C@H](NC(=O)c2cnc3nc(C4CC4)sc3c2)CC1)C(F)F (relative stereo) [Example 23]
8. CC(C)(O)[C@H]1CC[C@H](NC(=O)c2cnc3nc(N4CCCC4)sc3c2)CC1 [Example 33]

Resp:
1. 10 to 79.4 nM
2. 100 to 1000 nM
3. 1260 to 10000 nM
4. 100 to 1000 nM
5. 100 to 1000 nM
6. 10 to 79.4 nM
7. 100 to 1000 nM
8. 100 to 1000 nM

Report IC50 for every entry below.
1. CC(C)(O)[C@H]1CC[C@H](NC(=O)c2cnc3cc(C4CC4)sc3c2)CC1 [Example 2]
2. O=C(N[C@H]1CC[C@H](N2CC(F)(F)C2)CC1)c1cnc2nc(C3CC3)sc2c1 [Example 21]
3. O=C(NC1C[C@H](O)C[C@@H](O)C1)c1cnc2nc(C3CC3)sc2c1 (mixture of isomers) [Example 41]
4. Cn1nnnc1N1CCC(NC(=O)c2cnc3nc(C4CC4)sc3c2)CC1 [Example 31]

Resp:
10 to 79.4 nM
100 to 1000 nM
100 to 1000 nM
100 to 1000 nM

Report IC50 for every entry below.
1. COc1nc2ncc(C(=O)N[C@H]3CC[C@H](C(C)(C)O)CC3)cc2s1 [Example 40]
2. CC(C)(O)[C@H]1CC2(C[C@H](NC(=O)c3cnc4nc(C5CC5)sc4c3)C2)C1 (single isomer, unassigned) [Example 42]

Resp:
["100 to 1000 nM", "10 to 79.4 nM"]
